- tested_on: Beta-3 Adrenergic Receptor (Homo sapiens (Human), UniProt P13945)
- Sequence (P13945 whole entry, species assumed): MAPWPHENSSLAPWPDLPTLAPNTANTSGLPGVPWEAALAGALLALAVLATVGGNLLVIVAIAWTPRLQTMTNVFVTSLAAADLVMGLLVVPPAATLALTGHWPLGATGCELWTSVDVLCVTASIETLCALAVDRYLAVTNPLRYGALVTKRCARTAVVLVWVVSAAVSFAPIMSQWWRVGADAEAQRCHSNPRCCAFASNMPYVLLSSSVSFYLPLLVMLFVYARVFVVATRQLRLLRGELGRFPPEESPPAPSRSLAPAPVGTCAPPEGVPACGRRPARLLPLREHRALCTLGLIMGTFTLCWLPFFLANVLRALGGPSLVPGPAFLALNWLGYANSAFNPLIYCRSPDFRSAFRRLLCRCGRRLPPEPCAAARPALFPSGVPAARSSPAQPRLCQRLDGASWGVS
- method_description: Homogeneous Time-Resolved Fluorescence (HTRF) cAMP antagonist assay, IC50 determination
- applied_conditions: CHO-K1 cells stably expressing recombinant receptor, isoproterenol at EC90
pIC50: −log10 of the molar value.
reported_metric: pIC50

molecule: CNS(=O)(=O)c1cccc(OC[C@@H](O)CNC2COC3(CCN(S(=O)(=O)c4ccc5c(c4)CCC(C)(C)O5)CC3)C2)c1 (stereo partly drawn)
tested_on: Beta-3 Adrenergic Receptor (Homo sapiens (Human), UniProt P13945)
reported_metric: pIC50
meas_value: 7.83
//
molecule: CNS(=O)(=O)c1cccc(OC[C@@H](O)CNC2COC3(CCN(S(=O)(=O)c4cccc(-c5ccncc5)c4)CC3)C2)c1 (stereo partly drawn)
tested_on: Beta-3 Adrenergic Receptor (Homo sapiens (Human), UniProt P13945)
reported_metric: pIC50
meas_value: 7.88
//
molecule: CN(C)S(=O)(=O)c1cccc(OC[C@@H](O)CNC2COC3(CCN(S(=O)(=O)c4ccc(CN)cc4)CC3)C2)c1 (stereo partly drawn)
tested_on: Beta-3 Adrenergic Receptor (Homo sapiens (Human), UniProt P13945)
reported_metric: pIC50
meas_value: 6.76
//
molecule: CNS(=O)(=O)c1cccc(OC[C@@H](O)CN[C@H]2COC3(CCN(S(=O)(=O)c4cc5c(nc4O)OCCN5C)CC3)C2)c1
tested_on: Beta-3 Adrenergic Receptor (Homo sapiens (Human), UniProt P13945)
reported_metric: pIC50
meas_value: 6.34

a = CCc1cnc(N2CCC3(CC2)C[C@@H](NC[C@H](O)COc2cccc(S(=O)(=O)NC)c2)CO3)nc1
b = CNS(=O)(=O)c1cccc(OC[C@@H](O)CNC2COC3(CCN(S(=O)(=O)c4cccc(-c5ccsc5)c4)CC3)C2)c1 (stereo partly drawn)
# input Could you tell me which of a and b has the lower pIC50 reading? Answer by stating the label of the chosen item.
# output a
(a: 6.63, b: 7.64)

----------
- tested_on: UniProt P13945
- method_description: Homogeneous Time-Resolved Fluorescence (HTRF) cAMP antagonist assay, IC50 determination
- applied_conditions: CHO-K1 cells stably expressing recombinant receptor, isoproterenol at EC90
- Description: HTRF cAMP assays were performed according to manufacturer's instructions (Cisbio, cAMP Dynamic 2 Assay Kit; #62AM4PEJ). CHO-K1 cells stably expressing recombinant receptor were harvested and suspended in warm PBS to make a 300,000 cells/mL stock. […] Compounds were dissolved and serially diluted (5-fold) in DMSO to generate a 10-point dose response stock. […] The EC90 for isoproterenol, a beta-adrenergic agonist, was determined in separate experiments using standard methods to measure agonist potencies. […]
pIC50: −log10 of the molar value.
reported_metric: pIC50

P = CNS(=O)(=O)c1cccc(OC[C@@H](O)CNC2COC3(CCN(S(=O)(=O)c4ccc(Br)cc4)CC3)C2)c1 (stereo partly drawn)
Q = O=S(=O)(NC1CC1)c1cccc(OC[C@@H](O)CNC2COC3(CCN(S(=O)(=O)c4ccc5ccccc5c4)CC3)C2)c1 (stereo partly drawn)
R = NS(=O)(=O)c1cccc(OC[C@@H](O)CN[C@@H]2COC3(CCN(S(=O)(=O)c4cnc5cc[nH]c5c4)CC3)C2)c1
S = CN(C)CCCNS(=O)(=O)c1cccc(OC[C@@H](O)CNC2COC3(CCN(S(=O)(=O)c4ccc5c(c4)CCCC5)CC3)C2)c1 (stereo partly drawn)
# input Take the compounds listed above and rank them by pIC50; the top slot goes to the highest value. Write the labels out in the order the request specifies.
# output P, R, Q, S
(P: 7.85, R: 7.58, Q: 6.63, S: 6.15)

a = CNS(=O)(=O)c1cccc(OC[C@@H](O)CN[C@H]2COC3(CCN(S(=O)(=O)c4cnc5ccccc5c4O)CC3)C2)c1
b = CNS(=O)(=O)c1cccc(OC[C@@H](O)CNC2COC3(CCN(S(=O)(=O)c4ccc(OC)c(-c5ccc(CN)cc5)c4)CC3)C2)c1 (stereo partly drawn)
# input Which shows the larger pIC50 value: a or b ? Lab note: record the label of whichever item you select.
# output a
(a: 7.87, b: 7.56)

----------
- tested_on: Beta-3 Adrenergic Receptor (Homo sapiens (Human), UniProt P13945)
- method_description: Homogeneous Time-Resolved Fluorescence (HTRF) cAMP antagonist assay, IC50 determination
- applied_conditions: CHO-K1 cells stably expressing recombinant receptor, isoproterenol at EC90
pIC50: −log10 of the molar value.
reported_metric: pIC50

molecule: O=S(=O)(NC1CC(F)(F)C1)c1cccc(OC[C@@H](O)CNC2COC3(CCN(S(=O)(=O)c4ccc5ccccc5c4)CC3)C2)c1 (stereo partly shown)
reported_metric: pIC50
meas_value: 6.37
--
molecule: CNS(=O)(=O)c1cccc(OC[C@@H](O)CNC2COC3(CCN(S(=O)(=O)c4ccc(O)nc4)CC3)C2)c1 (stereo partly shown)
reported_metric: pIC50
meas_value: 6.69
--
molecule: NS(=O)(=O)c1cccc(OC[C@@H](O)CN[C@H]2COC3(CCN(S(=O)(=O)c4ccc5ccccc5c4)CC3)C2)c1
reported_metric: pIC50
meas_value: 7.72
--
molecule: CNS(=O)(=O)c1cccc(OC[C@@H](O)CNC2COC3(CCN(S(=O)(=O)c4cc(F)ccc4F)CC3)C2)c1 (stereo partly shown)
reported_metric: pIC50
meas_value: 7.85
--
molecule: CNS(=O)(=O)c1cccc(OC[C@@H](O)CN[C@H]2COC3(CCN(S(=O)(=O)c4cccc(-c5ccc(OCC#N)cc5)c4)CC3)C2)c1
reported_metric: pIC50
meas_value: 7.59

P = CNS(=O)(=O)c1cccc(OC[C@@H](O)CN[C@H]2COC3(CCN(S(=O)(=O)c4cnc5c(c4C)N(C)CCO5)CC3)C2)c1
Q = CNS(=O)(=O)c1cccc(OC[C@@H](O)CNC2COC3(CCN(S(=O)(=O)c4cccc(-c5ccc(NS(C)(=O)=O)cc5)c4)CC3)C2)c1 (stereo partly shown)
# input Hi team, can someone confirm which has the larger pIC50: P or Q ? Thanks. Indicate which entry you chose by stating its label.
# output Q
(Q: 8.03, P: 7.48)

1 = CNS(=O)(=O)c1cccc(OC[C@@H](O)CN[C@H]2COC3(CCN(S(=O)(=O)c4cnc5c(c4)N(CCO)CCO5)CC3)C2)c1
2 = CNS(=O)(=O)c1cccc(OC[C@@H](O)CN[C@@H]2COC3(CCN(S(=O)(=O)c4ccc(Br)c(C)c4)CC3)C2)c1
# input Pick one, 1 or 2 : lowest reported pIC50. Lab note: record the label of whichever item you select.
# output 1

a = CNS(=O)(=O)c1cccc(OC[C@@H](O)CN[C@H]2COC3(CCN(c4ncccn4)CC3)C2)c1
b = CNS(=O)(=O)c1cccc(OC[C@@H](O)CNC2COC3(CCN(S(=O)(=O)c4cccc(-c5ccc(S(N)(=O)=O)cc5)c4)CC3)C2)c1 (stereo partly shown)
c = CNS(=O)(=O)c1cccc(OC[C@@H](O)CNC2COC3(CCN(S(=O)(=O)c4cccc(-c5ccc(CN[C@@H](CO)C(N)=O)cc5)c4)CC3)C2)c1 (stereo partly shown)
d = CNS(=O)(=O)c1cccc(OC[C@@H](O)CNC2COC3(CCN(S(=O)(=O)c4cc(Br)ccc4Cl)CC3)C2)c1 (stereo partly shown)
# input Your job: order these 4 records by pIC50, ascending. // ordering of labels required in reply
# output a, c, d, b

----------
- tested_on: Beta-3 Adrenergic Receptor (Homo sapiens (Human))
- method_description: Homogeneous Time-Resolved Fluorescence (HTRF) cAMP antagonist assay, IC50 determination
- Assay type: cell-based
- applied_conditions: CHO-K1 cells stably expressing recombinant receptor, isoproterenol at EC90
pIC50: −log10 of the molar value.
reported_metric: pIC50

a = CNS(=O)(=O)c1cccc(OC[C@@H](O)CN[C@@H]2COC3(CCN(S(=O)(=O)c4cc(-c5ccc(CN)cc5)ccc4OC)CC3)C2)c1
b = CNS(=O)(=O)c1cccc(OC[C@@H](O)CNC2COC3(CCN(S(=O)(=O)c4cc(OC)cnc4C)CC3)C2)c1 (stereo partly drawn)
# input Kindly identify which of a and b has the larger recorded pIC50 value. Your choice should be expressed through its label.
# output a

P = CNS(=O)(=O)c1cccc(OC[C@@H](O)CNC2COC3(CCN(S(=O)(=O)c4cncc(Br)c4)CC3)C2)c1 (stereo partly drawn)
Q = CNS(=O)(=O)c1cccc(OC[C@@H](O)CNC2COC3(CCN(S(=O)(=O)c4cccc(-c5cn(C)c(=O)n(C)c5=O)c4)CC3)C2)c1 (stereo partly drawn)
R = CNS(=O)(=O)c1cccc(OC[C@@H](O)CNC2COC3(CCN(S(=O)(=O)c4ccc(-c5ccccc5)cc4)CC3)C2)c1 (stereo partly drawn)
# input Provide the items ranked by increasing pIC50. Form field (ranking): labels in requested order.
# output Q, R, P

Where these numbers come from: patent US11987588B2
